Molecular target: Ca2+/calmodulin-dependent protein kinase II (CaM kinase II) (Rattus norvegicus) (UniProt P11275+P08413+P15791+P11730)
Experiment: Inhibition of rat Calcium/calmodulin-dependent protein kinase type II at 30 uM
Type: protein assay
Label scheme for inhibition: lower than 5% is Not fulfilled, 5% and above is Fulfilled.

Record "Cn1c(-c2ccccc2)nc2c(Sc3ccccc3)ncnc21" ; criterion: inhibition no lower than 5%. Met?
Not fulfilled

What about "c1ccc(-[n+]2c[nH]c3ncncc32)cc1" ?
Not fulfilled

What about "c1ccc(Oc2ncnc3[nH]cnc23)cc1" ?
Not fulfilled

What about Cn1c(-c2ccc([S+](C)[O-])cc2)nc2c(Sc3ccccc3)ncnc21 (configuration not stated) ?
Fulfilled

What about "Cn1c(C#CCCO)nc2c(Sc3ccccc3)ncnc21" ?
Fulfilled
